Source: the supplement of paper PMC8882468

test system: HCI-025 (organoid from a breast cancer xenograft); test: CTG-3D luminescence at 96 h relative to day-0 seeding control (ratio to day 0); higher = more growth / less cytotoxicity; PDxO 3D drug screen, 96 h, CTG-3D normalised to day-0 seeding control.; conditions: 0.00025 µM; days in culture: 218
measurement.label: CTG-3D luminescence at 96 h

- compound: "NC1(C(=O)N[C@@H](CCO)c2ccc(Cl)cc2)CCN(c2nc[nH]c3nccc2-3)CC1 [capivasertib]"
  subject.of.test: "HCI-025"
  measurement.label: "CTG-3D luminescence at 96 h"
  quantitative.readout: 2.08
- compound: "C=CCn1c(=O)c2cnc(Nc3ccc(N4CCN(C)CC4)cc3)nc2n1-c1cccc(C(C)(C)O)n1 [adavosertib]"
  subject.of.test: "HCI-025"
  measurement.label: "CTG-3D luminescence at 96 h"
  quantitative.readout: 1.86
- compound: "CC1(C)CCC(c2ccc(Cl)cc2)=C(CN2CCN(c3ccc(C(=O)NS(=O)(=O)c4ccc(N[C@H](CCN5CCOCC5)CSc5ccccc5)c(S(=O)(=O)C(F)(F)F)c4)cc3)CC2)C1 [navitoclax]"
  subject.of.test: "HCI-025"
  measurement.label: "CTG-3D luminescence at 96 h"
  quantitative.readout: 1.87
- compound: "CC(=O)O[C@H]1C(=O)[C@@]2(C)[C@H]([C@H](OC(=O)c3ccccc3)[C@]3(O)C[C@H](OC(=O)[C@H](O)[C@@H](NC(=O)c4ccccc4)c4ccccc4)C(C)=C1C3(C)C)[C@]1(OC(C)=O)CO[C@@H]1C[C@@H]2O [paclitaxel]"
  subject.of.test: "HCI-025"
  measurement.label: "CTG-3D luminescence at 96 h"
  quantitative.readout: 2.18
- compound: "Nc1ccn([C@@H]2O[C@H](CO)[C@@H](O)C2(F)F)c(=O)n1 [gemcitabine]"
  subject.of.test: "HCI-025"
  measurement.label: "CTG-3D luminescence at 96 h"
  quantitative.readout: 2.09
- compound: "C[C@]12CC[C@@H]3c4ccc(O)cc4C[C@@H](CCCCCCCCC[S+]([O-])CCCC(F)(F)C(F)(F)F)[C@H]3[C@@H]1CC[C@@H]2O (stereo partly specified) [fulvestrant]"
  subject.of.test: "HCI-025"
  measurement.label: "CTG-3D luminescence at 96 h"
  quantitative.readout: 1.8
- compound: "CC(C)(C(=O)NCC(F)(F)C(F)(F)F)C(=O)N[C@@H]1C(=O)Nc2ccccc2-c2ccccc21"
  subject.of.test: "HCI-025"
  measurement.label: "CTG-3D luminescence at 96 h"
  quantitative.readout: 1.91
- compound: "NC(=O)c1cccc2cn(-c3ccc([C@@H]4CCCNC4)cc3)nc12 [niraparib]"
  subject.of.test: "HCI-025"
  measurement.label: "CTG-3D luminescence at 96 h"
  quantitative.readout: 1.94
- compound: "O=C(/C=C/c1cccnc1)NCCCCC1CCN(C(=O)c2ccccc2)CC1 [FK866]"
  subject.of.test: "HCI-025"
  measurement.label: "CTG-3D luminescence at 96 h"
  quantitative.readout: 2.01
- compound: "CCc1c2c(nc3ccc(O)cc13)-c1cc3c(c(=O)n1C2)COC(=O)[C@]3(O)CC [SN-38]"
  subject.of.test: "HCI-025"
  measurement.label: "CTG-3D luminescence at 96 h"
  quantitative.readout: 1.73
- compound: "C/C=C1\\NC(=O)[C@H]2CSSCC/C=C/[C@H](CC(=O)N[C@H](C(C)C)C(=O)N2)OC(=O)[C@H](C(C)C)NC1=O [romidepsin]"
  subject.of.test: "HCI-025"
  measurement.label: "CTG-3D luminescence at 96 h"
  quantitative.readout: 2.01
